Measured pKi accompanies every entry in the list below.
- experimental-target: Glutamine synthetase, chloroplastic (Zea mays)
- Sequence (P25462 whole entry): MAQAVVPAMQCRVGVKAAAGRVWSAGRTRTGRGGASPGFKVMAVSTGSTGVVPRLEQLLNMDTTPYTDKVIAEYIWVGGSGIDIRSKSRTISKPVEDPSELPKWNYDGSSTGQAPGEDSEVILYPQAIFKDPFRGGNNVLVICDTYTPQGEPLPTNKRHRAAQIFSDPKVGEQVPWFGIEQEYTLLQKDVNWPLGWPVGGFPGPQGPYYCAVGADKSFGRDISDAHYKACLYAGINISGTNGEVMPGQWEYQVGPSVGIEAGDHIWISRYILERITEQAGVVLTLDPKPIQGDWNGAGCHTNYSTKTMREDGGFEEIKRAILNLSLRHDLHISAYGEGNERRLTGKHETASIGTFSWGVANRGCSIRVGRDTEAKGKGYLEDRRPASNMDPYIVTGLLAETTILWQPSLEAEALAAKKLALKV
- protocol: Non-competitive inhibition of Zea mays cv. Jeff( maize) leaf glutamine synthetase using L-glutamate as substrate Lineweaver-Burk plot analysis
Convention used: pKi is expressed as -log10 of the molar concentration.

# smiles-repr, pKi
records = [
    ("Cc1cc(C)cc(NC(P(=O)(O)O)P(=O)(O)O)c1", 4.28),
]

Turning to the following molecule.
Requested read-out pKi, target or system Glutamine synthetase, chloroplastic (Zea mays), entry "O=P(O)(O)C(Nc1cc(Cl)cc(Cl)c1)P(=O)(O)O"
5.14
